- targetDesc: Signal peptidase I (Escherichia coli K-12) (UniProt P00803)
- Sequence (P00803 whole entry): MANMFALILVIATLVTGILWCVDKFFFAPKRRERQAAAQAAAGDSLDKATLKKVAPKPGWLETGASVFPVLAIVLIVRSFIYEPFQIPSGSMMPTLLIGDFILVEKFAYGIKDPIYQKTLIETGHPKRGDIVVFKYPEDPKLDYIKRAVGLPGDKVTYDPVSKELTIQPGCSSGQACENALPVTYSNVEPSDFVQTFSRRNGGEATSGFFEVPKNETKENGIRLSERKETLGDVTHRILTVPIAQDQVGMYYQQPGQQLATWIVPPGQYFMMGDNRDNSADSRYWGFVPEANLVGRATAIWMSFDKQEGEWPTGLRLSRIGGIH
- assaySummary: Inhibition of Escherichia coli type 1 signal peptidase lepB assessed as residual activity at 0.0049 uM preincubated for 10 mins followed by Dabcyl-VGGTATAYGAFSRPGLE-(EDANS)-OH substrate addition measured after 2 hrs by FRET based assay (reference value: 100%)
propertyLabel: Activity

C[C@@H]1NC(=O)[C@@H](NC(=O)[C@H](C)NC(=O)[C@@H](NC(=O)[C@H](CCCN)NC(=O)c2ccc(=O)n(-c3ccccc3)c2)[C@@H](C)O)Cc2cn(nn2)CCO[C@@H]2C[C@@H]3OB1O[C@@H]3C2
97.5%
CCCCCCc1ccc(-c2ccc(C(=O)N[C@@H](CCCN)C(=O)N[C@H](C(=O)N[C@@H](C)C(=O)N[C@H]3Cc4cn(nn4)CCN4C[C@@H]5OB(O[C@@H]5C4)[C@H](C)NC3=O)[C@@H](C)O)cc2)cc1
77%

// each listed compound needs a value for Activity
1. CCCCCCc1ccc(-n2cc(C(=O)N[C@@H](CCCN)C(=O)N[C@H](C(=O)N[C@@H](C)C(=O)N[C@H]3Cc4cn(nn4)CCO[C@@H]4C[C@@H]5OB(O[C@@H]5C4)[C@H](C)NC3=O)[C@@H](C)O)ccc2=O)cc1
2. CCCCCCc1ccc(-c2ccc(C(=O)N[C@@H](Cc3cnc[nH]3)C(=O)N[C@H](C(=O)N[C@@H](C)C(=O)N[C@H]3Cc4cn(nn4)CCCN4C[C@@H]5OB(O[C@@H]5C4)[C@H](C)NC3=O)[C@@H](C)O)cc2)cc1
3. CCCCCCc1ccc(-c2ccc(C(=O)N[C@@H](CCCN)C(=O)N[C@H](C(=O)N[C@@H](C)C(=O)N[C@H]3Cc4cn(nn4)CCO[C@@H]4C[C@@H]5OB(O[C@@H]5C4)[C@H](C)NC3=O)[C@@H](C)O)cc2)cc1

["101%", "90.8%", "91%"]

---

- System: Escherichia coli
- assaySummary: Antibacterial activity against Escherichia coli D22 CGSG 5163 harboring Ips mutant after 16 to 20 hrs by broth microdilution method
- Format: functional
Square brackets hold non-standard residues; d marks the D form. Peptide text beside a SMILES is read from it. * marks the point of attachment. Benzoyl(4-(4-hexylphenyl)) = CCCCCCc1ccc(-c2ccc(C(=O)*)cc2)cc1; X1 = C[C@H](N*)B1OC2C[C@@H]3C[C@@H](C3(C)C)[C@]2(C)O1; boroAla = C[C@H](N*)B(O)O; Orn = NCCC[C@H](N)C(=O)O
propertyLabel: MIC (µg/mL)
Give bare numbers, in µg/mL.

CCCCCCc1ccc(-c2ccc(C(=O)N[C@@H](CCCN)C(=O)N[C@H](C(=O)N[C@@H](C)C(=O)N[C@H]3Cc4cn(nn4)CCN4C[C@@H]5OB(O[C@@H]5C4)[C@H](C)NC3=O)[C@@H](C)O)cc2)cc1
32
CCCCCCc1ccc(-c2ccc(C(=O)N[C@@H](CCCN)C(=O)N[C@H](C(=O)N[C@@H](C)C(=O)N[C@H]3Cc4cn(nn4)CCCN4C[C@@H]5OB(O[C@@H]5C4)[C@H](C)NC3=O)[C@@H](C)O)cc2)cc1
8
CCCCCCc1ccc(-c2ccc(C(=O)N[C@@H](CCCN)C(=O)N(C)[C@H](C(=O)N[C@@H](C)C(=O)N[C@H]3Cc4cn(nn4)CCCN4C[C@@H]5OB(O[C@@H]5C4)[C@H](C)NC3=O)[C@@H](C)O)cc2)cc1
32
CCCCCCc1ccc(-c2ccc(C(=O)N[C@@H](CCCN)C(=O)N[C@H](C(=O)N[C@@H](C)C(=O)N[C@@H](CC(N)=O)C(=O)N[C@@H](C)B(O)O)[C@@H](C)O)cc2)cc1 ({Benzoyl(4-(4-hexylphenyl))}-[Orn]TAN-boroAla)
0.5
CCCCCCc1ccc(-c2ccc(C(=O)N[C@@H](CCCN)C(=O)N[C@H](C(=O)N[C@@H](C)C(=O)N[C@@H](CC(N)=O)C(=O)N[C@@H](C)B3OC4C[C@@H]5C[C@@H](C5(C)C)[C@]4(C)O3)[C@@H](C)O)cc2)cc1 (stereo partly specified) ({Benzoyl(4-(4-hexylphenyl))}-[Orn]TAN-X1)
0.5
CCCCCCc1ccc(-c2c[nH]c3ccc(C(=O)N[C@@H](CCCN)C(=O)N[C@H](C(=O)N[C@@H](C)C(=O)N[C@H]4Cc5cn(nn5)CCO[C@@H]5C[C@@H]6OB(O[C@@H]6C5)[C@H](C)NC4=O)[C@@H](C)O)cc23)cc1
16
CCCCCCc1ccc(-c2ccc(C(=O)N[C@@H](CCCN)C(=O)N[C@H](C(=O)N[C@@H](C)C(=O)N[C@H]3Cc4cn(nn4)CCO[C@@H]4C[C@@H]5OB(O[C@@H]5C4)[C@H](C)NC3=O)[C@@H](C)O)cc2)cc1
4

Turning now to a further compound:
I would be grateful if you could share the reported MIC for `CCCCCCc1ccc(-c2ccc(C(=O)N[C@@H](Cc3cnc[nH]3)C(=O)N[C@H](C(=O)N[C@@H](C)C(=O)N[C@H]3Cc4cn(nn4)CCCN4C[C@@H]5OB(O[C@@H]5C4)[C@H](C)NC3=O)[C@@H](C)O)cc2)cc1` . 64

---

- targetDesc: Signal peptidase I (Escherichia coli K-12) (UniProt P00803)
- assaySummary: Inhibition of Escherichia coli type 1 signal peptidase lepB assessed as residual activity at 0.0391 uM preincubated for 10 mins followed by Dabcyl-VGGTATAYGAFSRPGLE-(EDANS)-OH substrate addition measured after 2 hrs by FRET based assay (reference value: 100%)
propertyLabel: Activity (%)
Numbers only, in %.

Worked examples follow.
C[C@@H]1NC(=O)[C@@H](NC(=O)[C@H](C)NC(=O)[C@@H](NC(=O)[C@H](CCCN)NC(=O)c2ccc(-c3ccccc3)cc2)[C@@H](C)O)Cc2cn(nn2)CCO[C@@H]2C[C@@H]3OB1O[C@@H]3C2
68.9
C[C@@H]1NC(=O)[C@@H](NC(=O)[C@H](C)NC(=O)[C@@H](NC(=O)[C@H](CCCN)NC(=O)C#Cc2ccc(-c3ccccc3)cc2)[C@@H](C)O)Cc2cn(nn2)CCO[C@@H]2C[C@@H]3OB1O[C@@H]3C2
89.3

Read the next record carefully.
# query: Activity of entry `CCCCCCC#Cc1cncc(C(=O)N[C@@H](CCCN)C(=O)N[C@H](C(=O)N[C@@H](C)C(=O)N[C@H]2Cc3cn(nn3)CCO[C@@H]3C[C@@H]4OB(O[C@@H]4C3)[C@H](C)NC2=O)[C@@H](C)O)c1` 53.7

---

- targetDesc: Signal peptidase I (Escherichia coli K-12)
- assaySummary: Inhibition of Escherichia coli type 1 signal peptidase lepB assessed as residual activity at 0.3125 uM preincubated for 10 mins followed by Dabcyl-VGGTATAYGAFSRPGLE-(EDANS)-OH substrate addition measured after 2 hrs by FRET based assay (reference value: 100%)
Please go through the items and note down their Activity.

Example entries and their recorded answers appear below.
C[C@@H]1NC(=O)[C@@H](NC(=O)[C@H](C)NC(=O)[C@@H](NC(=O)[C@H](CCCN)NC(=O)c2ccc(=O)n(-c3ccccc3)c2)[C@@H](C)O)Cc2cn(nn2)CCO[C@@H]2C[C@@H]3OB1O[C@@H]3C2
69.5%
CCCCCCc1ccc(-n2cc(C(=O)N[C@@H](CCCN)C(=O)N[C@H](C(=O)N[C@@H](C)C(=O)N[C@H]3Cc4cn(nn4)CCO[C@@H]4C[C@@H]5OB(O[C@@H]5C4)[C@H](C)NC3=O)[C@@H](C)O)ccc2=O)cc1
59.3%
CCCCCCC#Cc1cncc(C(=O)N[C@@H](CCCN)C(=O)N[C@H](C(=O)N[C@@H](C)C(=O)N[C@H]2Cc3cn(nn3)CCO[C@@H]3C[C@@H]4OB(O[C@@H]4C3)[C@H](C)NC2=O)[C@@H](C)O)c1
13.4%

Consider the additional compound presented here.
What Activity value was documented for this compound, `CCCCCCc1ccc(-c2ccc(C(=O)N[C@@H](CCCN)C(=O)N[C@H](C(=O)N[C@@H](C)C(=O)N[C@H]3Cc4cn(nn4)CCN4C[C@@H]5OB(O[C@@H]5C4)[C@H](C)NC3=O)[C@@H](C)O)cc2)cc1` ? 38.8%

---

- targetDesc: UniProt P00803
- assaySummary: Inhibition of Escherichia coli type 1 signal peptidase lepB assessed as residual activity at 0.0049 uM preincubated for 10 mins followed by Dabcyl-VGGTATAYGAFSRPGLE-(EDANS)-OH substrate addition measured after 2 hrs by FRET based assay (reference value: 100%)
propertyLabel: Activity
Put down the number, then write its unit next to it.

CCCCCCc1ccc(-c2ccc(C(=O)N[C@@H](CCCN)C(=O)N(C)[C@H](C(=O)N[C@@H](C)C(=O)N[C@H]3Cc4cn(nn4)CCCN4C[C@@H]5OB(O[C@@H]5C4)[C@H](C)NC3=O)[C@@H](C)O)cc2)cc1
92.7%
C[C@@H]1NC(=O)[C@@H](NC(=O)[C@H](C)NC(=O)[C@@H](NC(=O)[C@H](CCCN)NC(=O)C#Cc2ccc(-c3ccccc3)cc2)[C@@H](C)O)Cc2cn(nn2)CCO[C@@H]2C[C@@H]3OB1O[C@@H]3C2
97.1%
CCCCCCc1ccc(-c2ccc(C(=O)N[C@@H](CCCNC(=N)N)C(=O)N[C@H](C(=O)N[C@@H](C)C(=O)N[C@H]3Cc4cn(nn4)CCCN4C[C@@H]5OB(O[C@@H]5C4)[C@H](C)NC3=O)[C@@H](C)O)cc2)cc1
105%

Look up Activity for this molecule: `CCCCCCc1ccc(-c2ccc(C(=O)N[C@@H](CCCN)C(=O)N[C@H](C(=O)N[C@@H](C)C(=O)N[C@H]3Cc4cn(nn4)CCCN4C[C@@H]5OB(O[C@@H]5C4)[C@H](C)NC3=O)[C@@H](C)O)cc2)cc1` 80.9%
